Target: vitronectin receptor αvβ3 (Homo sapiens, UniProt P05106+P06756)
Construct: Human placenta is stored at -80°C immediately after its excision; In order to extract the receptor
Sequence (P06756 31-889 limits assumed): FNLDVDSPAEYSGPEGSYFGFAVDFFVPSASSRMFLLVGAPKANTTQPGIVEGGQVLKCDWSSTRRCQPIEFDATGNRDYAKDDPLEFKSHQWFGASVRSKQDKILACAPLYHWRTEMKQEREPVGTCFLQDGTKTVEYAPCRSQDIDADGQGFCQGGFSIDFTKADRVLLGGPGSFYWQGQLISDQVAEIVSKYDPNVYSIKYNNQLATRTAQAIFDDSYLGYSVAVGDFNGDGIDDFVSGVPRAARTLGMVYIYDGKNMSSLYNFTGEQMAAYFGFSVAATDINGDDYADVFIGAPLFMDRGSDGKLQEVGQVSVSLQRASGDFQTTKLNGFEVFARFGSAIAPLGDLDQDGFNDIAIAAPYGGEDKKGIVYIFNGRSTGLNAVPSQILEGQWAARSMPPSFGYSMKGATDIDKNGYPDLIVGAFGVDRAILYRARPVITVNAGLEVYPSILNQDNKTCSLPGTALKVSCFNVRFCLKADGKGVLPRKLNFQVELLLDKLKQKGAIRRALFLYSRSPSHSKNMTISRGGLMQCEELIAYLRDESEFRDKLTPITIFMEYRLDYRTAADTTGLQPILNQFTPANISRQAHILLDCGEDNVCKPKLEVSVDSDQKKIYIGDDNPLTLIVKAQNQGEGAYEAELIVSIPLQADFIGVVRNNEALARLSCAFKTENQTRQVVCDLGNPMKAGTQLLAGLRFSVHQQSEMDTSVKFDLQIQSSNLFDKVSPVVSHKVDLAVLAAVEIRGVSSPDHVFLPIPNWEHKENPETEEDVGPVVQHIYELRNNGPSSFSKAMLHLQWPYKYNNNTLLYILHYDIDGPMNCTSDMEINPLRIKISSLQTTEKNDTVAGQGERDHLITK
Sequence (P06756 891-1048 partner limits assumed): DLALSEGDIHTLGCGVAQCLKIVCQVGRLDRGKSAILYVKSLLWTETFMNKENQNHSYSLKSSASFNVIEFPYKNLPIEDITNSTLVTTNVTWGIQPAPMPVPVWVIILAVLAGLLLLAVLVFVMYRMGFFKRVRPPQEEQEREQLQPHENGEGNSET
Sequence (P05106 27-788): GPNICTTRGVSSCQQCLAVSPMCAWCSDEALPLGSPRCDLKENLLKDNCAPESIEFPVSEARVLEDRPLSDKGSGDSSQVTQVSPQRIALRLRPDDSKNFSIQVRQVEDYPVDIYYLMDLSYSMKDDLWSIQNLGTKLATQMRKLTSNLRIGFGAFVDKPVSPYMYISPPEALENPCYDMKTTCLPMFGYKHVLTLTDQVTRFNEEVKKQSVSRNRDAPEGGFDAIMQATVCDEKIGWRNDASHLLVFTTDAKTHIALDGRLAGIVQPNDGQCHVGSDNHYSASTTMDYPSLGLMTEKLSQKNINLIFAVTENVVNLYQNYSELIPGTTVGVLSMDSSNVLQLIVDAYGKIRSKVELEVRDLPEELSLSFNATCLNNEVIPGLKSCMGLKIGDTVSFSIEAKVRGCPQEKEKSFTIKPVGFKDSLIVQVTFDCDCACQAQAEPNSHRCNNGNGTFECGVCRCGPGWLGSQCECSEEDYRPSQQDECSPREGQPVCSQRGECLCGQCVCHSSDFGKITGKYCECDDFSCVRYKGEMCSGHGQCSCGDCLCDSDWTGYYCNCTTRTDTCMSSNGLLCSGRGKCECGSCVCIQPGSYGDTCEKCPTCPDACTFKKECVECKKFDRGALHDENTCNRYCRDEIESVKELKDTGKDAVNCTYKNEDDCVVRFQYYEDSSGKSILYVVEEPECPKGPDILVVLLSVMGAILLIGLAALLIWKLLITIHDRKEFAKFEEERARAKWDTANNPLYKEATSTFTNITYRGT
Assay: Inhibition of fibrinogen binding to immobilised vitronectin receptor αvβ3 (ELISA)
Conditions: fibrinogen 1.5 µg/ml, receptor from human placenta coated on microtitre plates, overnight at room temperature, ELISA detection; read-out: VNR IC50
pIC50: −log10 of the molar value.

| MOLECULE | pIC50 |
| --- | --- |
| CC(C)(C)c1nc(N=C(N)N)sc1C(=O)N1CCCC(COCC(=O)O)C1 (racemic) | 7.66 |
| Cc1nc(NC(=N)N)sc1C(=O)N1CCC[C@@H](COCC(=O)O)C1 | 7.30 |
| NC(N)=Nc1nc(C2CCCC2)c(C(=O)N2CCCC(COCC(=O)O)C2)s1 (racemic) | 7.05 |
| CCCc1nc(N=C(N)N)sc1C(=O)N1CCCC(COCC(=O)O)C1 (racemic) | 7.74 |
| Cc1nc(N=C(N)N)sc1C(=O)N1CCCC(COCC(=O)O)C1 (racemic) | 7.41 |
| NC(N)=Nc1nc(-c2ccccc2)c(C(=O)N2CCCC(COCC(=O)O)C2)s1 (racemic) | 7.15 |
